target: Tyrosine-protein kinase receptor UFO (Homo sapiens) (UniProt P30530); details: at 0.1 µM;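 further: values are mean percent inhibition of AXL from the GSK PKIS screen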
Sequence (P30530 whole entry): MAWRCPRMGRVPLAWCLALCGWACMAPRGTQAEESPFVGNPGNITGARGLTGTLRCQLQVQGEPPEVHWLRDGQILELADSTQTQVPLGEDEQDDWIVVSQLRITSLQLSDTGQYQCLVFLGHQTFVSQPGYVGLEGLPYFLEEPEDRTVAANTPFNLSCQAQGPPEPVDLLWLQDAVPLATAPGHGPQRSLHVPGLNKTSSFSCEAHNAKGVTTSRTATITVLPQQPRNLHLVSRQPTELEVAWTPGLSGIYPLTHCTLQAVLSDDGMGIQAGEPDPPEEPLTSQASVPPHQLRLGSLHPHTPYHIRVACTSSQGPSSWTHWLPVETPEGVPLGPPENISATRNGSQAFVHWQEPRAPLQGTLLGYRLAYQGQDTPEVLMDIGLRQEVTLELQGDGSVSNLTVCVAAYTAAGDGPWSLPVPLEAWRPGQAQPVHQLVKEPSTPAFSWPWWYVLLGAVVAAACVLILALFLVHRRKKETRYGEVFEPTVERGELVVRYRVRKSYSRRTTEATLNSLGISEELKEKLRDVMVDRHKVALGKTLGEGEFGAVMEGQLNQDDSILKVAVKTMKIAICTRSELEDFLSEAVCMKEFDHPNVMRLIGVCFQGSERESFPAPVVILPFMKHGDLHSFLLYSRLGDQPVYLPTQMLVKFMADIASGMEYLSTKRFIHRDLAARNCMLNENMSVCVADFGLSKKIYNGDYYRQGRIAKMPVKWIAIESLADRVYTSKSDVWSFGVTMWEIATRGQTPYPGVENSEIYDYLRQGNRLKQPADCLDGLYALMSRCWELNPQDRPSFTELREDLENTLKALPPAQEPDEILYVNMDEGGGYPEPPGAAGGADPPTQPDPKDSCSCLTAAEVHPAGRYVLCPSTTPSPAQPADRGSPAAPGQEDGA
Measured Parameter: inhibition

COc1cccc(/C=N/Nc2ncnc3c2cnn3-c2cccc(OC)c2)c1	-6.24%
Fc1ccc(-c2ncn(CCCN3CCOCC3)c2-c2ccncc2)cc1	-0.1%
COc1cc2ncn(-c3cc(OCCc4ccccc4)c(C(N)=O)s3)c2cc1OC	-5.54%
NC(=O)Cc1ccccc1Oc1nccc(-c2c(-c3ccc(F)cc3)ncn2C2CCNCC2)n1	-5.91%
c1ccc(-c2n[nH]cc2-c2ccnc(-c3ccc(OCCN4CCOCC4)cc3)c2)nc1	8.29%

* * *

biological target: Platelet-derived growth factor receptor beta (Homo sapiens); settings: at 1 µM;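 further: each value is a mean percent inhibition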
Measured Parameter: inhibition (%)

N#Cc1ccc(Oc2nccc(-c3c(-c4ccc(F)cc4)ncn3C3CCNCC3)n2)cc1	5.37
NC(=O)Cc1ccccc1Oc1nccc(-c2c(-c3ccc(F)cc3)ncn2C2CCNCC2)n1	5.76
COc1cc(C)c(N(C)C(=O)CN(C)C)cc1Nc1nc(Nc2cccc(F)c2C(N)=O)c2cc[nH]c2n1	2.38
CCS(=O)(=O)c1ccc(OC)c(Nc2ncc(-c3ccccc3Cl)o2)c1	28
CCC(=O)Nc1ccc(C)c(-c2ccc(C(=O)NCC3CC3)cc2)c1	0.71
O=C(NCC1CC1)c1ccc(-c2cccc(C(=O)NC3CC3)c2)cc1	8.57
Nc1nccc(-c2c(-c3ccc(F)cc3)ncn2C2CCC(O)CC2)n1 (configuration not stated)	30.3
O=C(Nc1n[nH]c2nc(-c3ccco3)ccc12)C1CC1	5.96
COc1cc(Nc2ncc3c(C)nc(-c4cccc(Oc5ccccc5)c4)n3n2)cc(OC)c1OC	10.4
Cc1ccc(NC(=O)c2ccoc2)cc1-c1ccc(C(=O)NCC2CC2)cc1	-0.8
CN(c1ccc(NC(=O)Nc2c(Cl)cccc2Cl)cc1)c1ccnc(Nc2cccc(CS(C)(=O)=O)c2)n1	77.7
COc1ccc2cc(-c3c(-c4ccncc4)nc(-c4ccc([S+](C)[O-])cc4C)n3C)ccc2c1 (configuration not stated)	5.35
COc1cc2ncn(-c3cc(OCc4cccs4)c(C(N)=O)s3)c2cc1OC	72.5
COc1cc(N2CCN(C(C)C)CC2)ccc1Nc1nc(Nc2ccc(F)cc2C(=O)NC[C@@H](O)CO)c2cc[nH]c2n1	5.07
Fc1ccc(-c2ncn(C3CCNCC3)c2-c2ccnc(Oc3ccc4c(c3)OCO4)n2)cc1	12.7
c1ccc(Oc2ccc(Nc3ncc(-c4ccccc4)o3)cc2)cc1	10.3
O=C1Nc2ccc(I)cc2C1=Cc1cc(Br)c(O)c(Br)c1	2.27
COc1cccc(-n2cnc3c(N/N=C/c4ccncc4)ncnc32)c1	49.9
NCc1ccc(-n2c(-c3nonc3N)nc3cnccc32)cc1	37.3
CS(=O)(=O)CCNCc1ccc(-c2ccc3ncnc(Nc4ccc(OCc5ccccc5)c(Br)c4)c3c2)o1	7.34
CCc1cccc(CC)c1/C=C/c1cncc(C(=O)NC)c1	9.24
CN1CCN(CCCNc2nc3ccc(Oc4ccc(NC(=O)Nc5cc(C(F)(F)F)ccc5F)cc4)cc3[nH]2)CC1	25.8
C[C@@H](Oc1cc(-n2cnc3ccc(OC4CCN(C)CC4)cc32)sc1C(N)=O)c1ccccc1Cl	70.8
CCS(=O)(=O)c1ccc(OC)c(Nc2ncc(-c3cccc(-c4ccccc4F)c3)o2)c1	63.6
O=C(Nc1n[nH]c2nc(-c3ccc(O)cc3)c(Br)cc12)C1CC1	41.3
Fc1ccc(-c2c(-c3ccncc3)nc3n2CCS3)cc1	5.75
CN(C)c1ccc2c(c1)/C(=C/Nc1ccc(S(N)(=O)=O)cc1)C(=O)N2	71.3

* * *

biological target: Tyrosine-protein kinase CSK (Homo sapiens) (UniProt P41240); details: at 0.1 µM;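 further: value given is the averaged percent inhibition of CSK kinase activity, from the GSK PKIS kinase inhibitor set screening panel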
Sequence (P41240 2-450 limits assumed): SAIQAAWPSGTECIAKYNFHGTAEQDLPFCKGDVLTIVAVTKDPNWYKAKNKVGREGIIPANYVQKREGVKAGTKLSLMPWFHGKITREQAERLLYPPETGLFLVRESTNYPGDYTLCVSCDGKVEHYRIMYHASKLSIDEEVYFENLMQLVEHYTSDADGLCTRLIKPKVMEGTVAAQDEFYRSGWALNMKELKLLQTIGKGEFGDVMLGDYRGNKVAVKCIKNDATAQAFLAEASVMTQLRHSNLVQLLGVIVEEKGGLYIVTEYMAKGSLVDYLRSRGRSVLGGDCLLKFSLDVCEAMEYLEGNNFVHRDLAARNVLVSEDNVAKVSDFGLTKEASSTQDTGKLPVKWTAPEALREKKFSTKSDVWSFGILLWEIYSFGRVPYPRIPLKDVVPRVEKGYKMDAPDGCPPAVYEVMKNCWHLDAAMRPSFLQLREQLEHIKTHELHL
Measured Parameter: inhibition (%)

N#Cc1ccc(Oc2nccc(-c3c(-c4ccc(F)cc4)ncn3C3CCNCC3)n2)cc1	0.79
COc1cc2ncn(-c3cc(OCc4ccccc4C(F)(F)F)c(C(C)=O)s3)c2cc1OC	0.53
COc1ccc2cc(-c3c(-c4ccncc4)nc(-c4ccc(S(C)(=O)=O)cc4C)n3C)ccc2c1	3.76
COc1ccc2ncn(-c3cc(O[C@H](C)c4ccccc4Cl)c(C(N)=O)s3)c2c1	4.64
CCN(CC)Cc1ccc(Nc2nccc(-c3cnn4ncccc34)n2)cc1	1.79
CCc1ccc(Oc2nccc(-c3c(-c4ccc(F)cc4)ncn3C3CCNCC3)n2)cc1	-0.21

* * *

In this section we review reported inhibition values for a set of molecules.
target: Serine/threonine-protein kinase D2 (Homo sapiens) (UniProt Q9BZL6); conditions: at 1 µM;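 further: mean value of PRKD2 inhibition, from the GSK PKIS screening panel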
Sequence (Q9BZL6 whole entry): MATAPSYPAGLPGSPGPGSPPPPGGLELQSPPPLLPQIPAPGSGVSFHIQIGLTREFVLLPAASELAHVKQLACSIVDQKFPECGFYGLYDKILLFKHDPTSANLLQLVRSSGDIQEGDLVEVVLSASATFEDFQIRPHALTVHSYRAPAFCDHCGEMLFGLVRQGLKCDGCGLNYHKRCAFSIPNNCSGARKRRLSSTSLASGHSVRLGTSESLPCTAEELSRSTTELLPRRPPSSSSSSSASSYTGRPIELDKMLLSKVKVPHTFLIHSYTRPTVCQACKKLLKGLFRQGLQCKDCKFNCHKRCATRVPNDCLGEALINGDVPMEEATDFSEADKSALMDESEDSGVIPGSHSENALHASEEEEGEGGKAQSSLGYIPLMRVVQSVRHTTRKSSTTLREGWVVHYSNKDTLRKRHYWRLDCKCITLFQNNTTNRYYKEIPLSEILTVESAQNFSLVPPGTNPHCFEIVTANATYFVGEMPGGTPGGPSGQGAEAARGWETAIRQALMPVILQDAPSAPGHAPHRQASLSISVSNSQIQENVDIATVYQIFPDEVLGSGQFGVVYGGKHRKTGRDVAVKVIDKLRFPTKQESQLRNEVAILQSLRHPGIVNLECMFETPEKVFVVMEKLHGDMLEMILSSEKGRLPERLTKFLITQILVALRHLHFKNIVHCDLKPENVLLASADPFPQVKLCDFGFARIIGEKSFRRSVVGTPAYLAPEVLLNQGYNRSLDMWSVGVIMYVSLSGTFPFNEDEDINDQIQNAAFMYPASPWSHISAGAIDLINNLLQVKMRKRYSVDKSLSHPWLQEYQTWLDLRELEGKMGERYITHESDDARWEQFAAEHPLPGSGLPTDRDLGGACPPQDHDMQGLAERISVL
Measured Parameter: inhibition (%)

COc1cc2ncn(-c3cc(OCc4cccs4)c(C(N)=O)s3)c2cc1OC	-0.96
O=C(Nc1n[nH]c2cc(-c3ccccc3)ccc12)C1CC1	5.1
NS(=O)(=O)c1ccc(N/N=C2\C(=O)Nc3ccc(-c4cnco4)cc32)cc1	9.15
Fc1ccc(-c2ncn(C3CCNCC3)c2-c2ccnc(Oc3ccc(Oc4ccccc4)cc3)n2)cc1	5.64
CNC(=O)c1cncc(/C=C/c2c(C)cccc2C)c1	-2.22
Nc1nccc(-c2c(-c3ccc(F)cc3)ncn2C2CCC(O)CC2)n1 (stereo unspecified)	23.3
c1ccc(Oc2ccc(Nc3ncc(-c4ccccc4)o3)cc2)cc1	3.8
Clc1ccc(CNc2nccc(-c3cnn4ncccc34)n2)cc1	5.34
O=C(Nc1n[nH]c2cc(-c3cc(F)ccc3F)ccc12)C1CC1	4.95
NC(=O)Cc1ccccc1Oc1nccc(-c2c(-c3ccc(F)cc3)ncn2C2CCNCC2)n1	9.53
O=C(Nc1n[nH]c2nc(-c3ccco3)ccc12)C1CC1	1.79

* * *

Items are presented alongside their recorded inhibition.
Target: Ephrin type-B receptor 3 (Homo sapiens)
Sequence (whole entry): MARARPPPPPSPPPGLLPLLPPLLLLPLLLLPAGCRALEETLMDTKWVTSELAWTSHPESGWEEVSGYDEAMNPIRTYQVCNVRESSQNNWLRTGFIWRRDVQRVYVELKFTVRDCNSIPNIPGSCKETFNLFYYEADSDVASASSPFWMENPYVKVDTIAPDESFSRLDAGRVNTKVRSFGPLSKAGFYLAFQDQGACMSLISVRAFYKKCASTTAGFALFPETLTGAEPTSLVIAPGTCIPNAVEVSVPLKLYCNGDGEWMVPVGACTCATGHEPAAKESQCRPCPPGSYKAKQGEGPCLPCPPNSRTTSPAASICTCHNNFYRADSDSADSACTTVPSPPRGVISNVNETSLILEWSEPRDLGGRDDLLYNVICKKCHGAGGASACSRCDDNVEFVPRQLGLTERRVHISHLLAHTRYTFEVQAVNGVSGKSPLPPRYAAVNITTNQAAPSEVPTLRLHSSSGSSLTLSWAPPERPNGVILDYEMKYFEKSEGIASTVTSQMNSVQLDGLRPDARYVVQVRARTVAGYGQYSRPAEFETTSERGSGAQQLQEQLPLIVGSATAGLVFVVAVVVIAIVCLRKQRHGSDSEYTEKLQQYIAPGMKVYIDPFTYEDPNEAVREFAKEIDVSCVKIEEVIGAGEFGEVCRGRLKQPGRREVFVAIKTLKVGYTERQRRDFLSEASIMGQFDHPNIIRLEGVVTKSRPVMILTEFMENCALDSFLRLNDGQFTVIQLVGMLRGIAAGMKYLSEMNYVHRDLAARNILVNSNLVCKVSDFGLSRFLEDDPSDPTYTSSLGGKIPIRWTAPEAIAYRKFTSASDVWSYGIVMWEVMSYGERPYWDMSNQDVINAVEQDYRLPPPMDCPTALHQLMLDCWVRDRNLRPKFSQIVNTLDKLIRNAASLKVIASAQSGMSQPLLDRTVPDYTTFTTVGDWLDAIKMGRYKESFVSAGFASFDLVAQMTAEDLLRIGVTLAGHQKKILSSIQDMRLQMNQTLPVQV
Conditions: at 1 µM
Measured Parameter: inhibition (%)

CCS(=O)(=O)c1ccc(OC)c(Nc2ncc(-c3ccccc3Cl)o2)c1	3.23
O=C1Nc2ccccc2/C1=C/Nc1ccc(-n2cncn2)cc1	2.77
CNC(=O)c1cncc(/C=C/c2c(C)cccc2C)c1	2.29
Fc1ccc(-c2nc3n(c2-c2ccncc2)CCS3)cc1	-1.28
CN(c1ccc(NC(=O)Nc2c(Cl)cccc2Cl)cc1)c1ccnc(Nc2cccc(CS(C)(=O)=O)c2)n1	4.62
CS(=O)(=O)CCNCc1cc(-c2cc3c(Nc4ccc(OCc5cccc(F)c5)c(Cl)c4)ncnc3s2)cs1	4.6
C#Cc1cccc(Nc2ncnc3ccc(OCCCCNCCS(C)(=O)=O)cc23)c1	0.73
O=C(Nc1n[nH]c2nc(-c3ccc(O)cc3)c(Br)cc12)C1CC1	5.92
NC(=O)c1cc(-c2ccc(F)cc2)cc(-c2ccncc2)c1N	5.99
COc1cccc(-n2cnc3c(N/N=C/c4ccncc4)ncnc32)c1	-4.51

* * *

As shown below, each of these compounds has a reported inhibition value.
target: Mitogen-activated protein kinase 13 (Homo sapiens); conditions: at 0.1 µM;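 further: reported value is the mean percent inhibition of p38delta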
Measured Parameter: inhibition (%)

NCc1ccc(-n2c(-c3nonc3N)nc3cnccc32)cc1	2.2
COc1ccc(-c2ccc3c(NC(=O)C4CC4)n[nH]c3n2)cc1	-0.41
Fc1ccc(-c2c(-c3ccncc3)nc3n2CCS3)cc1	3.54
C#Cc1cccc(Nc2ncnc3ccc(OCCCCNCCS(C)(=O)=O)cc23)c1	6.43
COc1cccc(-n2cnc3c(N/N=C/c4ccncc4)ncnc32)c1	-0.64
CS(=O)(=O)CCNCc1cc(-c2cc3c(Nc4ccc(OCc5cccc(F)c5)c(Cl)c4)ncnc3s2)cs1	5.45
CN(C)c1ccc2c(c1)/C(=C/Nc1ccc(S(N)(=O)=O)cc1)C(=O)N2	6.36
COc1cc2ncn(-c3cc(OCc4ccccc4C(F)(F)F)c(C(C)=O)s3)c2cc1OC	2.82
COc1cccc(/C=N/Nc2ncnc3c2cnn3-c2cccc(OC)c2)c1	4
COC(=O)Nc1nc2ccc(Sc3ccc(NC(=O)Nc4cc(C(F)(F)F)ccc4F)cc3)cc2[nH]1	1.98
